Target: T1, exon 6 peptide (ASSLRNDSSSSNRKAKNPPGDS), coated on ELISA plate (not fully specified)
T1 construct: No biotin is mentioned for the ELISA coat; also called a peptide of SCF248
T1 peptide: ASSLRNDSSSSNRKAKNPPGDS
Assay: direct ELISA on coated peptide, IgG4, read at 450 nm
measured_property: absorbance at 1 ng/mL antibody (absorbance)
State the answer as a number, implicitly in absorbance.

binder	measured_property	result_number
A64P mutant expressed as full length IgG4 antibody (antibody, V domains shown, Full length IgG4) VH: QVQLVQSGAELKKPGSSVKISCKSSGYAFSSNWMNWVKQRPGQGLEWIGQIYPEDGDTHYNGKFKGKATLTADKSTSTAYMELSSLTSEDSAVYFCSSSNWVGSYWGQGTLVTVSS VL: DVVMTQSPLSLPVTLGQPASISCKSSQSLLEEDGNTYLNWLQQRPGQSPRRLIYLVNRLDDGVPDRFSGSGSGTDFTLKISRVEAEDVGVYYCWQGTDLPQTFGGGTKVEIK	absorbance at 1 ng/mL antibody	0.564

Reported absorbance at 1 ng/mL antibody for B104P mutant expressed as full length IgG4 antibody (antibody, V domains shown, Full length IgG4) VH: QVQLVQSGAELKKPGSSVKISCKSSGYAFSSQWMNWVKQRPGQGLEWIGQIYPDDGDTHYNDKFKGKATLTADKSTSTAYMELSSLTSEDSAVYFCSSSNWVGSYWGQGTLVTVSS VL: DVVMTQSPLSLPVTLGQPASISCKSSQSLLEADGNTYLNWLQQRPGQSPRRLIYLVDRLDSGVPDRFSGSGSGTDFTLKISRVEAEDVGVYYCWQGTDLPQTFGGGTKVEIK : what is it?
0.527
